Target system: FAAH (Rattus norvegicus, UniProt P97612)
Construct: Preparation of Rat Brain Membranes Preparations (FAAH Enzyme Solution); from tissue; host or cells: rat cerebrum (brain membrane preparation)
Assay procedure: Determination of FAAH inhibitory activity in rat (rat brain membrane preparations, [3H]-anandamide hydrolysis)
Type: biochemical
Experimental setup: rat brain membrane preparations; 100 nM test substance; read-out: FAAH Inhibition, Inhibition Rate at 100 nM
Assign Yes whenever inhibition at 0.1 µM does not fall below 90%; assign No whenever it does.

Example entries begin here.
INSERT INTO results (compound, label_class) VALUES
  ('COc1ccc(-c2ncc3c(n2)n(C(=O)N2CCC2)c(=O)n3C)cc1 [Example 356]', 'No'),
  ('COc1cccc(-c2ncc3c(n2)n(C)c(=O)n3C(=O)N(C)CCc2ccccn2)c1 [Example 114]', 'Yes'),
  ('COc1cccc(Cc2ncc3c(n2)n(C(=O)N2CCCC2)c(=O)n3C)c1 [Example 288]', 'No'),
  ('CCN(C)C(=O)n1c(=O)n(C)c2cnc(CCc3cccc(OC)c3)nc21 [compound 557]', 'No'),
  ('COc1cccc(-c2ncc3c(n2)n(C)c(=O)n3C(=O)N(C)CC(C)C)c1 [Example 108]', 'Yes');

Decide: inhibition at 0.1 µM of COc1cccc(-c2ncc3c(n2)n(C)c(=O)n3C(=O)N2CCN(c3ccc(Cl)cc3)CC2)c1 [Example 142] >= 90%?
Yes

----------
Overview of reported log10 of IC50 across a group of molecules:
Target system: FAAH (Rattus norvegicus, UniProt P97612)
Construct: Preparation of Rat Brain Membranes Preparations (FAAH Enzyme Solution); from tissue; host or cells: rat cerebrum (brain membrane preparation)
Sequence (P97612 1-579): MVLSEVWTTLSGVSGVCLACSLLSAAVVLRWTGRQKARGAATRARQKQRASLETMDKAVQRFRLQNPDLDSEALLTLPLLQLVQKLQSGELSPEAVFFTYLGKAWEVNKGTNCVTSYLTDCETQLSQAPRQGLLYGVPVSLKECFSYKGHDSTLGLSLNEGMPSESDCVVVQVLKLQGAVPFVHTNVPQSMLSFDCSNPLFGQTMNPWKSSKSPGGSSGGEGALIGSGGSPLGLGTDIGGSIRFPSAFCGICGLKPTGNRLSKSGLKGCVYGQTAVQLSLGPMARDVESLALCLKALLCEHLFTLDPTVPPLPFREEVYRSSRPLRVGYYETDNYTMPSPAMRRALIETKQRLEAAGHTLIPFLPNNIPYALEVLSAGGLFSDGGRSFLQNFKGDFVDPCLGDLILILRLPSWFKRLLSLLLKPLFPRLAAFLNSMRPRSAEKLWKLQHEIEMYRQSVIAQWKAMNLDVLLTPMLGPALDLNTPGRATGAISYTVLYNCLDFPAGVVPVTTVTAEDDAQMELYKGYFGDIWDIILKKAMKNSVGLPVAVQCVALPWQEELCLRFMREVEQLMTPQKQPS
Assay procedure: Determination of FAAH inhibitory activity in rat (rat brain membrane preparations, [3H]-anandamide hydrolysis)
Format: biochemical
Experimental setup: rat brain membrane preparations; test substance 0.1 nM to 1 μM; read-out: FAAH Inhibition IC50
Note: values are log10 of IC50 expressed in nM.

INSERT INTO assay_data (molecule, assay_endpoint, numeric_readout) VALUES
  ('COc1cccc(CCc2ncc3c(n2)n(C)c(=O)n3C(=O)N2CCCC2)c1 [compound 15]', 'log10 of IC50', 1.80),
  ('Cc1ccc(OCCCc2ncc3c(n2)n(C(=O)N(C)C)c(=O)n3C)cc1 [Example 396]', 'log10 of IC50', 1.89),
  ('CN(C)C(=O)n1c(=O)n(C)c2cnc(CCc3ccc(OC4CCC4)cc3)nc21 [compound 531]', 'log10 of IC50', 1.48),
  ('Cn1c(=O)n(C(=O)N2CCN(c3ccc(F)cc3)CC2)c2cnc(-c3ccccc3)nc21 [Example 123]', 'log10 of IC50', 0.60),
  ('Cn1c(=O)n(C(=O)N2CCC2)c2nc(COc3cccc(F)c3)ncc21 [Example 420]', 'log10 of IC50', 1.81);

Reported log10 of IC50 of CN(C)C(=O)n1c(=O)n(C)c2cnc(-c3ccc(OCC(F)(F)F)cc3)nc21 [Example 334] : 1.40

Reported log10 of IC50 of Cn1c(=O)n(C(=O)N2CCCC2)c2nc(-c3ccccc3)ncc21 [Example 224] : 1.72
